Target chain: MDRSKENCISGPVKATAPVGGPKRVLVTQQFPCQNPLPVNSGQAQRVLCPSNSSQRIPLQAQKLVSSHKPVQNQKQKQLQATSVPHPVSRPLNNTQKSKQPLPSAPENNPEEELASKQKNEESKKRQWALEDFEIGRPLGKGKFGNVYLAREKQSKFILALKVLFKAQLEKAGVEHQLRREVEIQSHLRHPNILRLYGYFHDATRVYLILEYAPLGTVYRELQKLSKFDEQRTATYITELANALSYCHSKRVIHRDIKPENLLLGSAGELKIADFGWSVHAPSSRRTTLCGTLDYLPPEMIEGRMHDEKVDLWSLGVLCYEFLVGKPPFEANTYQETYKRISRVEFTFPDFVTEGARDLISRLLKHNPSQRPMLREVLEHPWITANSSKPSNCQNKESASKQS
Label Y when IC50 is strictly below 6 nM; at or above that, label N.

# MOLECULE, ANSWER LABEL
measured = [
    ("NC(=O)/C(=C1\\Nc2ccc(CCO)cc2N1)c1nccc(C(F)(F)F)n1 [Compound 105A]", "Y"),
    ("NC(=O)C(=C1Nc2ccccc2N1)c1nccc(C(F)(F)F)n1", "N"),
    ("NC(=O)/C(=C1\\Nc2ccc(NC(=O)CCN3CCOCC3)cc2N1)c1nccc(C(F)(F)F)n1 [Compound 84A]", "N"),
    ("NC(=O)/C(=C1\\Nc2ccc(CCN3CCOCC3)cc2N1)c1nccc(C(F)(F)F)n1 [Compound 102A]", "Y"),
    ("Cc1cc(C(F)(F)F)nc(C(C(N)=O)=C2Nc3ccc(NC(=O)[C@@H]4CCCN4C)cc3N2)n1 (single isomer, unassigned) [Compound 144A]", "Y"),
    ("NC(=O)C(=C1Nc2ccc(C(=O)NCCCN3CCOCC3)cc2S1)c1nccc(C(F)(F)F)n1 (single isomer, unassigned) [Compound 40A]", "Y"),
    ("NC(=O)/C(=C1\\Nc2ccccc2S1)c1nc(-c2ccccn2)cc(C(F)(F)F)n1 [Compound 11A]", "N"),
    ("CN(C)CC(=O)Nc1ccc2c(c1)N/C(=C(/C(N)=O)c1nccc(C(F)(F)F)n1)N2 [Compound 73A]", "N"),
]

Task: Input CN1CCN(CCNC(=O)c2ccc3c(c2)S/C(=C(/C(N)=O)c2nccc(C(F)(F)F)n2)N3)CC1 [Compound 57A] ; condition: IC50 strictly below 6 nM. Does it hold?
Result: N

Task: Would you mind doing CN1CCC[C@H]1C(=O)Nc1ccc2c(c1)S/C(=C(/C(N)=O)c1nccc(C(F)(F)F)n1)N2 [Compound 78A] as well?
Result: N

Task: Would you mind doing CCN(C(=O)C1CCN(C)CC1)c1ccc2c(c1)N/C(=C(/C(N)=O)c1nccc(C(F)(F)F)n1)N2 [Compound 141A] as well?
Result: Y

Task: Would you mind doing NC(=O)/C(=C1\Nc2ccc(CCN3CCS(=O)(=O)CC3)cc2S1)c1nccc(C(F)(F)F)n1 [Compound 100A] as well?
Result: Y

Task: Would you mind doing NC(=O)/C(=C1\Nc2ccccc2S1)c1nc(OCCN2CCOCC2)cc(C(F)(F)F)n1 [Compound 14A] as well?
Result: N
